# ASSAY: soluble on expression in E. coli; label from the status in PepcDB or PDB records

{"SEQUENCE RECORD": "MSLKMIISYGMPKSASTFAWLVIKKICLNSRLDDVVDLSTAAKGNDSVEDYIDGSVKVNAAQITREVGERCCVIKTHSSAVHFRTLVGGSAFFLPFAQHRDPRDVALSLMDHARRSRELGIADYADCLSIEGCLPVIDSSIENFIEWVDQYSAIPISYDYLCFNGLACLSFIASALDCDVDCAAILKGFERKESIAQFNKGIRHRWVDEMPQAQARMLFRRYEEYYDRFGAEGHHHHHH", "soluble on expression in E. coli": "not soluble"}
{"SEQUENCE RECORD": "MGHHHHHHSHKIRVAHTPDADDAFMFYAMTHGKVDTWLEIEHVIEDIETLNRKAFNAEYEVTAISAHAYALLDDKYRILSAGASVGDGYGPVVVAKSEISLDGKRIAVPGRYTTANLLLKLAVEDFEPVEMPFDRIIQAVLDEEVDAGLLIHEGQITYADYGLKCVLDLWDWWSEQVKLPLPLGLNAIRRDLSVEVQEEFLRAMRESIAFAIENPDEAIEYAMKYSRGLDRERAKRFAMMYVNDYTYNMPESVDAALKKLYEMAEAKGLI", "soluble on expression in E. coli": "not soluble"}
{"SEQUENCE RECORD": "MVCLQRICYEKIFLKKKIIATGTIWMSNMQQINNASVRPVSAYNTKHLQIPAIALLQSSPLPEQAIRTFSRALLTPTNHLFVNGRYIRTGLISGFDSRKLSFFQRIYLFLKSRFFTENKSVKISAVWAHDSWSNNYFHWFNDTLPRLFLLSKQIEDSVAVLPVELSKITFIVESLELLKIEHQWIDQKKSHRFESLSVLHTATLQPDINPLLQKQMRDAVFSAMKIDPQERPFRKIYISRAHARYRKIINEQELLPVLKKYGYDIIYPETYSFKEQVKLFAESNALISIHGAGHTNCMFMKQDAKVMEIRNTEWESQPLCFWGLANIFELKWEYITATRVSEVSNFNDVFIAPHIFEESLRTFENIKLEHHHHHH", "soluble on expression in E. coli": "not soluble"}

====

# ASSAY: soluble on expression in E. coli; label from the status in PepcDB or PDB records

{"SEQUENCE RECORD": "MAKKRGKPEIDWTDDDKEIIWVSKSEIKRDSEHLKKLGAELIELTPQNLEKIPLDEDLKYAIRQAQSFKLEARRRQIQFIGKLLRNRDSAPIQDALDKVKNRHNQQQALLHKLELIRDQLINMGDASLNQLLSEYPQLDRQHLRNLIRMAQKEKQINKPAKNYHEILQYLKSELIV", "soluble on expression in E. coli": "not soluble"}
{"SEQUENCE RECORD": "MSLVHQLLAQMENGYMKIIKENLVGIYLHGSYAFGTYCHSVSDLDVLIVVYEKLTIDEKKQLLDYTINILDKWAPKKGIEFHVLQLKDTINLSYPIPFDLHFSPIHRSRYLTNKNKYIEDMMGYDEDLVAHLMITKLYGKVLVGKPIDSVFGWIDQKKYFESIVADVKEAKKEIVQQPMYVILNMCRVMAFKQENKILSKRAGGEWGLVHFPTNHHSLIQLALKEYRGETVLLEQYNDSELNDFADIMLSLLFKEGHHHHHH", "soluble on expression in E. coli": "not soluble"}

====

# ASSAY: soluble on expression in E. coli; label from the status in PepcDB or PDB records
TEST READOUT: soluble on expression in E. coli

{"SEQUENCE RECORD": "MYRNLLNWLTILLVFPSCSGTSPTISVVCEENNVGNAIIKWETAPILKGQVKVYASTSPDFIPEENPVVTINIAKGKKTIVTNDPSQRYYYLMVFNNRYRVRVAARNVNIPGIQNFRDLGGYKSAETGKDTRWGMLYRSAQIDSIPFCSRRELKNMGIRTIIDLRSEEERHNYPQLHDEDFNVLHLPIATGNMEHILQDIRDKKIETDTIYRLVERMNRQLVTNYRKEYKELFTLLLDRNNYPVVIHCTSGKGRTGIVSALVLAALGVNEEAIMKDYRLSNDYFNIPKASRYAYKLPINSQEAITTIYSAKEDFLNAAKEQIDAEYGSVQAYLKKGIGLSAEEIERLRSILLIDNGLEHHHHHH", "OBSERVED": "not soluble"}
{"SEQUENCE RECORD": "MSIVSISYNQEEYIREALDGFAAQRTEFPVEVIIADDASTDATPRIIGEYAARYPQLFRPILRQTNIGVHANFKDVLSAARGEYLALCEGDDYWTDPLKLSKQVKYLDRHPETTVCFHPVRVIYEDGAKDSEFPPLSWRRDLSVDALLARNFIQTNSVVYRRQPSYDDIPANVMPIDWYLHVRHAVGGEIAMLPETMAVYRRHAHGIWHSAYTDRRKFWETRGHGMAATLEAMLDLVHGHREREAIVGEVSAWVLREIGKTPGRQGRALLLKSIADHPRMTMLSLQHRWAQTPWRRFKRRLSTELSSLAALAYATRRRALEGRDGGYRETTSPPTGRGRNVRGSHA", "OBSERVED": "not soluble"}
{"SEQUENCE RECORD": "MGKDGEGDKKRETMAVMSLMKDQQNPIQQFQVKFKEIETGFKSWLSKQKLPVEAAVVTAMGGVQGAFIGGLMGTLSPEMPQAGIDPQAMASLKQTQALVGGPLVQARNFAAITGVNAGIACVMKRIRGKEDLESAVVAAFGSGVAYSLVSAGLQGQPMNAITTAAGFAVFQGVFFKLGERFSKPSVEDPYYTRGRSMLLKLGLEKYEKNFKKGLLADPTLPLLTDSALRDVSIPPGPRLLILDHIQRDPELKGKRGSRG", "OBSERVED": "not soluble"}
{"SEQUENCE RECORD": "MLAHLEELKKNIEGDLYFDLTMRTLYATDASVYRELPLAVARPKHKQDVQKIIAFANKYKIGIIPRTAGTSLAGQVVGKGIIVDVSKYFTE", "OBSERVED": "not soluble"}

Looking up `MGSDKIHHHHHHMKIDLNADLGEGCASDAELLTLVSSANIACGFHAGDAQIMQACVREAIKNGVAIGAHPSFPDRENFGRSAMQLPPETVYAQTLYQIGALATIARAQGGVMRHVKPHGMLYNQAAKEAQLADAIARAVYACDPALILVGLAGSELIRAGKQYGLTTREEVFADRGYQADGSLVPRSQSGALIENEEQALAQTLEMVQHGRVKSITGEWATVAAQTVCLHGDGEHALAFARRLRSAFAEKGIVVAA` , I see its soluble on expression in E. coli listed as not soluble

Looking up `MGHHHHHHSHMRGCGSRRLCGSWRGCWSWSGKPSTSSRPSPTAALRSWNNENKSALQLERQVKELKLGEPGSYQPAETAAKAQLSLMALPGEGYGGGHLDNEEEAPRPMLNIPGDLESREAMVAFFNSAGASAQEEQSVCCQPLAHPVASSQKKPEAAAPAPETGGESVCGDTHWALQEAMEKLQQLYGRRRWT` , I see its soluble on expression in E. coli listed as not soluble

====

# ASSAY: soluble on expression in E. coli; label from the status in PepcDB or PDB records

{"SEQUENCE RECORD": "MGSDKIHHHHHHMDAVQLKSFVAVAHEGNLTQAAKRLFLSQPAVSAQIKALEEYVGTPLFRRTGKGMVLTRAGEILLPEAESLLQYKHKLEHFAKTLAGDYSEETSLGIIHPIDSAKLVALTDNIGQTAPKTRLHIQYGMSGEILSRIQHKTLHGGFILGNAAQRGIRSVFLQNLTYALICPQSQYPHLTRSLPQSLQECVWIEMSGVSGSRKHLHQFWRSNRLSPKKQILCDYPQTIIDLVAGGIGVAMVPGNKAEAAAKEGAGVAIIESCRHSMPLNFIYAEEYEDNPHVSLLLECIEKVWGVQAVQPPVVSDN", "soluble on expression in E. coli": "not soluble"}
{"SEQUENCE RECORD": "MSNLIELALRNAALDRTKLLSQVQKIEFLNGYDPRFVEGLISLEMIGDIDEYVASLMYVKMTDKYTQEEKEQLTDTILTINNDRLISCQYRFPQLYQKLMQDQFLSTFFSSSHLLPNIAPGTNNQSYETVSTNNKMKMESAKLYGHYEYYQCVVALITQIDGSRYFYHLNPNRIFGDYMGSAPLKLSGSELKDVKDITFILHPRSMVDYREFQRLQERNIVFKTVMLPVGAKSVSLSYDTDKDVLTVNNLEAGQTVTYNNLLQTPQYNRYQYTPEQYFMTQLYRGQTWAEALGEALDKYIVTRQEGATWWDLKPLFFNRKTTKNNMIAAARIKKEIEAGATSFDFTGVSRNGLLNQLLTTAVDYQLEYQRGLQNGVLSAEDLTTSAALR", "soluble on expression in E. coli": "not soluble"}

====

# ASSAY: soluble on expression in E. coli; label from the status in PepcDB or PDB records
TEST READOUT: soluble on expression in E. coli

{"SEQUENCE RECORD": "MTVTNMTEWFAKGVEALHHDHVYLARACFEQAVTEQRSPLSSSYLALCQAKTRGTFSDAIASAREAVAADPANPALYHNLGCIYLLAGKRTEAIETFRQGLEHHHHHH", "soluble on expression in E. coli": "not soluble"}
{"SEQUENCE RECORD": "MVSVNENALPLVERMIERAELLNVEVQELENGTTVIDCGVEAAGGFEAGLLFSEVCMGGLATVELTEFEHDGLCLPAVQVTTDHPAVSTLAAQKAGWQVQVGDYFAMGSGPARALALKPKETYEEIDYEDDADVAILCLESSELPDEDVAEHVADECGVDPENLYLLVAPTASIVGSVQVSARVVETGLYKLLEVLEYDVTRVKYATGTAPIAPVADDDGEAMGRTNDCILYGGTVYLYVEGDDELPEVVEELPSEASEDYGKPFMKIFEEADYDFYKIDPGVFAPARVVVNDLSTGKTYTAGEINVDVLKESFSL", "soluble on expression in E. coli": "soluble"}
{"SEQUENCE RECORD": "MYDWFSEMRKKDPVYYDGNIWQVFSYRYTKEVLNNFSKFSSDLTGYHERLEDLRNGKIRFDIPTRYTMLTSDPPLHDELRSMSADIFSPQKLQTLETFIRETTRSLLDSIDPREDDIVKKLAVPLPIIVISKILGLPIEDKEKFKEWSDLVAFRLGKPGEIFELGKKYLELIGYVKDHLNSGTEVVSRVVNSNLSDIEKLGYIILLLIAGNETTTNLISNSVIDFTRFNLWQRIREENLYLKAIEEALRYSPPVMRTVRKTKERVKLGDQTIEEGEYVRVWIASANRDEEVFHDGEKFIPDRNPNPHLSFGSGIHLCLGAPLARLEARIAIEEFSKRFRHIEILDTEKVPNEVLNGYKRLVVRLKSNE", "soluble on expression in E. coli": "soluble"}
{"SEQUENCE RECORD": "MGSDKIHHHHHHMWTSKQQQALDHLAATPSLLVVSDFDGTLAGFSHDAMQVPVNHVAMAALQQLTSLPSTRVALLSGRDVQGLIQVSGAAAPMIVAGSHGAESTEGGLVLNEDQQAALSAVTAALEEIATSVPGAFVEHKPYHRVLHVIRVADQQRARAALDRALALEIPGAKIAEGKWIAEASVVDFTKGTWIKAAQEQYRPSVTLFLGDDTTDENGFAVLGCNDVGIKVGAGDTCATVRLESIDRVGQFLSSLADARSAAQQ", "soluble on expression in E. coli": "not soluble"}
{"SEQUENCE RECORD": "MGSDKIHHHHHHMNIDKLDYHSLIIFESISRHLNAGLVANELGMSISSVSRHLGILRDIFKDVLFIRRAQGFVLSDKAIQLLPYIKQLLHDYQVIKHNHIHFNPLTARGHFKIYAYNEFTYVINKVIHQYILPQAPNLTFEVRTLSSDCSRAIEHGEIDFAVVYERFKDHKIICEMFSPTEELFLIAKEGHAVFEDEFTLANLCQYDYFALDNYNDLPMPLLEQLGKTEGKAVNVLGATDNIAALSRHILDGRAISMSCNVFTREFYSLIKGIRTATLPSALTERLLKQITVGRTVGNYLIYSEINQSPTHHWLKQQLFNGIRDEWYLAMGR", "soluble on expression in E. coli": "not soluble"}

Looking up `MGSDKIHHHHHHMGKVADTLKPGDRVLLSFEDESEFLVDLEKDKKLHTHLGIIDLNEVFEKGPGEIIRTSAGKKGYILIPSLIDEIMNMKRRTQIVYPKDSSFIAMMLDVKEGDRIIDTGVGSGAMCAVLARAVGSSGKVFAYEKREEFAKLAESNLTKWGLIERVTIKVRDISEGFDEKDVDALFLDVPDPWNYIDKCWEALKGGGRFATVCPTTNQVQETLKKLQELPFIRIEVWESLFRPYKPVPERLRPVDRMVAHTAYMIFATKVCRREETE` , I see its soluble on expression in E. coli listed as not soluble

Looking up `TSIMAVTFKDGVILGADSRTTTGAYIANRVTDKLTRVHDKIWCCRSGSAADTQAIADIVQYHLELYTSQYGTPSTETAASVFKELCYENKDNLTAGIIVAGYDDKNKGEVYTIPLGGSVHKLPYAIAGSGSTFIYGYCDKNFRENMSKEETVDFIKHSLSQAIKWDGSSGGVIRMVVLTAAGVERLIFYPDEYEQL` , I see its soluble on expression in E. coli listed as soluble
